# Tested on: NCI-H1373 cells
# METHOD NOTES: Inhibition on NCI-H1373 cell proliferation (Cell-Titer-Glo)
# Format: cell-based
# TEST CONDITIONS: Homo sapiens, 144 h; NCI-H1373 cells, incubation for 6 days, Cell-Titer-Glo; read-out: NCI-H1373 cell proliferation inhibition IC50
pIC50: −log10 of the molar value.
List of pIC50 values.

Example entries begin here.
| COMPOUND | READOUT VALUE |
| --- | --- |
| CCOc1cnc(-c2ccc(C(=O)NCCCC(C)Nc3cn[nH]c(=O)c3C(F)(F)F)cc2)s1 (stereo not shown) | < 5.52 |
| CC(CCCNC(=O)c1cnc(-c2ncc(C(F)(F)F)cn2)cn1)Nc1cc[nH]c(=O)c1C#N (stereo not shown) | < 5.52 |
| CC(CCCNC(=O)c1ccc(-c2ncc(N(C)C3CC3)s2)cc1)Nc1cn[nH]c(=O)c1C(F)(F)F (stereo not shown) | 6.00 to 6.52 |

Tell me the measured pIC50 of N#CC1CCN(C(=O)[C@@H](CCCNC(=O)c2ccc(-c3ncc(C(F)(F)F)s3)cc2)Nc2cn[nH]c(=O)c2C(F)(F)F)CC1 , please.
< 5.52
